- target.or.test.system: METTL3/14 (Homo sapiens, UniProt Q86U44)
- Construct: The enzyme used was full-length his-tagged METTL3; His; made in house
- Sequence (Q86U44 whole entry): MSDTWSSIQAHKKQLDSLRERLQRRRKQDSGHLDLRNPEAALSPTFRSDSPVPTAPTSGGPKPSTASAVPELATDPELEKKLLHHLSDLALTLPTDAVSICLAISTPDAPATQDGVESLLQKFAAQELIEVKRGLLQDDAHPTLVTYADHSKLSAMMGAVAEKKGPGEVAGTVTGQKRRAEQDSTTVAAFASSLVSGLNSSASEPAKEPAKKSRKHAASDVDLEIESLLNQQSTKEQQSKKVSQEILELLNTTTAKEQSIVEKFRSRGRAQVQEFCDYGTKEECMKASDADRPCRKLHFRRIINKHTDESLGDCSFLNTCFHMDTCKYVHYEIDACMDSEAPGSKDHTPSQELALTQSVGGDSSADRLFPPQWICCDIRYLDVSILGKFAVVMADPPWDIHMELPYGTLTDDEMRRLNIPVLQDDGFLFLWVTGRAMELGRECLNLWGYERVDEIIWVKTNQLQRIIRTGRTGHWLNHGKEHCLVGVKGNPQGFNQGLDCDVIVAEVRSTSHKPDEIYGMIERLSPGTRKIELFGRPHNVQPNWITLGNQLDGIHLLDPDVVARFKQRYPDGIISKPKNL
- Sequence (Q9HCE5 whole entry partner): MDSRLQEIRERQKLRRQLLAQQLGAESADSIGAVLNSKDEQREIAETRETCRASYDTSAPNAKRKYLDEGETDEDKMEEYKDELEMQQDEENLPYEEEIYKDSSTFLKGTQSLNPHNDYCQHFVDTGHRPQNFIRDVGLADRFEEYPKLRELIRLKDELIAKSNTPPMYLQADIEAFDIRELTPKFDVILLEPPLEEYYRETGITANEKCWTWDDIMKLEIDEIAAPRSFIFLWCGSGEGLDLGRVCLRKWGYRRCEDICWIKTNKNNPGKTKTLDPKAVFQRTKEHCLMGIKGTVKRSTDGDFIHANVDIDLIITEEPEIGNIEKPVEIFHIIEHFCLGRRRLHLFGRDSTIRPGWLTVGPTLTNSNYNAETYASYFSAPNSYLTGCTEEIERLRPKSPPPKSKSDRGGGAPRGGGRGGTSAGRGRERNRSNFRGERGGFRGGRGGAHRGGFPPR
- test.details: METTL3/14 methyltransferase assay (METTL3_14 RFMS, RapidFire mass spectrometry);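 note: recombinant His-tagged METTL3 with FLAG-tagged METTL14 from baculovirus, SAH product quantified by mass spectrometry against isotope-labelled internal standards, 60 min at room temperature, scaled between no-RNA and DMSO-only wells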
- Type: biochemical
- reported.conditions: 5 nM METTL3/14, 0.2 μM RNA substrate, 0.5 μM SAM; lower limit of the assay IC50=5 nM; Compounds 63-265; read-out: METTL3_14 RFMS IC50
I'd appreciate it if you could supply IC50 values for the items below.
Numbers only, in nM.

Sample records with IC50:
> print(dat)
                                   compound  result.type  assay.value
1  FC1(F)CC(CNCc2ccc3nc(Cn4cc(-c5cc(Br)cc6[nH]ncc56)nn4)cn3c2)C1 [Example 252]         IC50         8.02
2  O=C(NCc1cn2cc(CNC3CCOC3)ccc2n1)c1cc(=O)n2ccccc2n1 (stereo not drawn) [Compound 122]         IC50          110
3  O=C(NCc1cn2cc(CN3CC(c4ccccn4)C3)ccc2n1)c1cc(=O)n2ccccc2n1 [Compound 134]         IC50          440
4  CC(C)(C)CCNCc1ccc2nc(CNC(=O)c3cc(=O)n4ccccc4n3)cn2c1 [Compound 93]         IC50           13

// each compound listed below needs its IC50
1. O=C(NCc1cn2cc(CN3CCC(C(F)(F)F)CC3)ccc2n1)c1cc(=O)n2ccccc2n1 [Compound 138]
2. O=C(NCc1cn2cc(CNCCC3CC3)ccc2n1)c1cc(=O)n2ccccc2n1 [Compound 103]
3. CC1(C)CCN(Cc2ccc3nc(Cn4cc(-c5cc(Br)cc6[nH]ncc56)nn4)cn3c2)CC1 [Example 227]

a:
1: 31.4; 2: 13.7; 3: 7.9
